Entry source: the Human Domainome abundance scans (Beltran et al. 2025)

Listing of recorded abundance fitness by entry.
B1: Tyrosine-protein kinase Lck, residues 63 to 120; numbered along this chain, P06239 (parent)
chain: DNLVIALHSYEPSHDGDLGFEKGEQLRILEQSGEWWKAQSLTTGQEGFIPFNFVAKAN

# Variants of: B1
# procedure-summary: abundance fitness (aPCA) (normalised: wild type 0, dead -1); higher = more abundant; growth selection in yeast, the domain comes from the species named
# stated-conditions: Homo sapiens
recorded-metric: abundance fitness

[[record]]
sequence_change = "D15V"
recorded_metric = "abundance fitness"
assay_result = -0.273

[[record]]
sequence_change = "S40G"
recorded_metric = "abundance fitness"
assay_result = -0.795

[[record]]
sequence_change = "A6F"
recorded_metric = "abundance fitness"
assay_result = -0.907

[[record]]
sequence_change = "H14E"
recorded_metric = "abundance fitness"
assay_result = -0.051

[[record]]
sequence_change = "N52C"
recorded_metric = "abundance fitness"
assay_result = -0.303

[[record]]
sequence_change = "R27Y"
recorded_metric = "abundance fitness"
assay_result = -0.193

[[record]]
sequence_change = "G33A"
recorded_metric = "abundance fitness"
assay_result = -0.398

[[record]]
sequence_change = "S32L"
recorded_metric = "abundance fitness"
assay_result = -0.377

[[record]]
sequence_change = "T43H"
recorded_metric = "abundance fitness"
assay_result = -0.622

[[record]]
sequence_change = "A57H"
recorded_metric = "abundance fitness"
assay_result = -0.057

[[record]]
sequence_change = "V4N"
recorded_metric = "abundance fitness"
assay_result = -0.727

[[record]]
sequence_change = "S32A"
recorded_metric = "abundance fitness"
assay_result = -0.067

[[record]]
sequence_change = "A57V"
recorded_metric = "abundance fitness"
assay_result = -0.023

[[record]]
sequence_change = "T43W"
recorded_metric = "abundance fitness"
assay_result = -1.1

[[record]]
sequence_change = "I28N"
recorded_metric = "abundance fitness"
assay_result = -0.585

[[record]]
sequence_change = "A38Y"
recorded_metric = "abundance fitness"
assay_result = -0.714

[[record]]
sequence_change = "E34S"
recorded_metric = "abundance fitness"
assay_result = -0.054

[[record]]
sequence_change = "A38T"
recorded_metric = "abundance fitness"
assay_result = -0.963

[[record]]
sequence_change = "L18E"
recorded_metric = "abundance fitness"
assay_result = -0.757

[[record]]
sequence_change = "D1L"
recorded_metric = "abundance fitness"
assay_result = -0.487

[[record]]
sequence_change = "S13P"
recorded_metric = "abundance fitness"
assay_result = -0.358

[[record]]
sequence_change = "S13I"
recorded_metric = "abundance fitness"
assay_result = -0.215

